Target: p53(Y220C)_NUGC-3 (Homo sapiens, UniProt P04637, Y220C)
Assay: Reporter gene assay (NUGC-3_P53_Luc cells)
Format: cell-based
Details: 6 hours, 37 °C, luciferase, normalized to Ref-1a 10 μM, EC50 = concentration at 50% Activity, read-out: p53(Y220C)_NUGC-3 EC50
Labelling field: enter class 1 if recorded EC50 is less than 0.1 µM. Enter class 0 if it equals or exceeds that cut-off.

Answered examples (8):
CN1CC[C@@H](Nc2cccc3c(CC(F)(F)F)c(C#CCNc4ccc(P(C)(C)=O)cc4-c4cc[nH]n4)sc23)[C@@H](F)C1; class 1
COc1cc([S@@](=N)(=O)C2CC2)ccc1NCC#Cc1sc2c(N[C@@H]3CCN(C)C[C@@H]3F)cccc2c1CC(F)(F)F; class 0
COc1cc([S@@](C)(=N)=O)ccc1NCC#Cc1sc2c(N[C@H]3CCN(C)C[C@H]3F)cccc2c1[C@@H](O)C(F)(F)F; class 1
CN1CC[C@@H](Nc2cccc3c(CC(F)(F)F)c(C#CCNc4ccc(P(C)(C)=O)c5c4C(=O)NC5)sc23)[C@@H](F)C1; class 0
COc1c(NCC#Cc2sc3c(N[C@@H]4CCN(C)C[C@@H]4F)cccc3c2CC(F)(F)F)ccc(P(C)(C)=O)c1OC; class 0
COc1cc(P(C)(C)=O)ccc1NCC#Cc1sc2c(NC3CN(C)CC3F)cccc2c1CC(F)(F)F (stereo not drawn); class 0
COc1cc(P(C)(C)=O)ccc1NCC#Cc1sc2c(N[C@@H]3CC[N@@+](C)([O-])C[C@@H]3F)cccc2c1CC(F)(F)F (single isomer, unassigned); class 0
COc1c(NCC#Cc2sc3c(N[C@@H]4CCN(C)C[C@@H]4F)cccc3c2CC(F)(F)F)ccc(P(C)(C)=O)c1C(F)(F)F; class 0

Query: In plain terms, does COc1cc([S@](C)(=N)=O)ccc1NCC#Cc1sc2c(N[C@@H]3CC[N@@+](C)([O-])C[C@@H]3F)cccc2c1CC(F)(F)F (single isomer, unassigned) come in under 0.1 µM for EC50?
Response: class 0

Query: Note, next up: COc1cc([S@@](C)(=N)=O)ccc1NCC#Cc1sc2c(N[C@H]3CCN(C)C[C@@H]3F)cccc2c1[C@@H](O)C(F)(F)F
Response: class 1

Query: Note, next up: COc1cc(P(C)(C)=O)ccc1NCC#Cc1sc2c(N[C@H]3CCN(C)C[C@H]3F)cccc2c1[C@@H](O)C(F)(F)F
Response: class 1

Query: Note, next up: COc1nc([S@](C)(=N)=O)ccc1NCC#Cc1sc2c(N[C@@H]3CCN(C)C[C@@H]3F)cccc2c1CC(F)(F)F
Response: class 1

Query: Note, next up: COc1cc([S@@](C)(=N)=O)ccc1NCC#Cc1sc2c(N[C@@H]3CCN(C)C[C@H]3F)cccc2c1[C@@H](O)C(F)(F)F
Response: class 0

Query: Note, next up: COc1cc([S@@](=N)(=O)C2COC2)ccc1NCC#Cc1sc2c(N[C@@H]3CCN(C)C[C@@H]3F)cccc2c1CC(F)(F)F
Response: class 1
